Tested on: MCF7
Experiment: Cell cycle arrest in human MCF7 cells assessed as accumulation at S phase at 2 times IC50 concentration after 24 hrs using propidium iodide staining by flow cytometry relative to control
Format: functional
Below: a set of entries, each annotated with reported Activity.

compound: Cn1cc(C(=O)c2ccc3nc(NC(=O)C(F)(F)F)cn3c2)c2ccccc21
measured-on: MCF7
display-unit: %
Activity: 6.3
//
compound: Cc1ccc(F)c(C(=O)c2ccc3nc(NC(=O)C(F)(F)F)cn3c2)c1
measured-on: MCF7
display-unit: %
Activity: 7.1
//
compound: Cn1cnc2c(NCc3ccccc3)nc(NCCO)nc21 [OLOMOUCINE]
measured-on: MCF7
display-unit: %
Activity: 15
//
compound: Cc1ccc(C(=O)c2ccc3nc(NC(=O)C(F)(F)F)cn3c2)cc1F
measured-on: MCF7
display-unit: %
Activity: 14.5

* * *

Test system: SK-LU-1
Test: Cytotoxicity against human SK-LU-1 cells after 48 hrs by SRB assay
Type: functional, cell-based
Details: SK-LU-1, 48 h
Note to self: IC50 under 30 µM means class 1, ties and anything higher get class 0.

compound: O=C(c1ccc(C(F)(F)F)c(F)c1)c1ccc2nc(NC(=O)C(F)(F)F)cn2c1
measured-on: SK-LU-1
assigned-class: class 0
--
compound: O=C(c1ccc2nc(NC(=O)C(F)(F)F)cn2c1)c1ncc[nH]1
measured-on: SK-LU-1
assigned-class: class 1
--
compound: O=C(c1ccc2nc(NC(=O)C(F)(F)F)cn2c1)c1ccc(C(F)(F)F)cc1F
measured-on: SK-LU-1
assigned-class: class 0
--
compound: Cn1cc(C(=O)c2ccc3nc(NC(=O)C(F)(F)F)cn3c2)c2ccccc21
measured-on: SK-LU-1
assigned-class: class 1
--
compound: Cc1ccc(F)c(C(=O)c2ccc3nc(NC(=O)C(F)(F)F)cn3c2)c1
measured-on: SK-LU-1
assigned-class: class 1
--
compound: Cn1cnc2c(NCc3ccccc3)nc(NCCO)nc21 [OLOMOUCINE]
measured-on: SK-LU-1
assigned-class: class 0
